Reference source for all entries: ChEMBL document CHEMBL1961873

# TGT: Proto-oncogene tyrosine-protein kinase ROS (Homo sapiens)
# CONDITIONS: at 0.1 µM
# Description: GSK_PKIS: ROS mean inhibition at 0.1 uM [Nanosyn]
MEASUREMENT_NAME: inhibition (%)

molecular_string=O=C(Nc1ccc(Oc2ccc3[nH]c(NC(=O)c4ccco4)nc3c2)cc1)Nc1cc(C(F)(F)F)ccc1F value_unit=% numeric_result=0.05
molecular_string=COc1cc2ncnc(Nc3ccc4c(cnn4Cc4ccccc4)c3)c2cc1OC value_unit=% numeric_result=6.51
molecular_string=O=S(=O)(CCOCc1ccc(-c2ccc3ncnc(Nc4ccc(OCc5cccc(F)c5)c(Cl)c4)c3c2)o1)c1ccccc1 value_unit=% numeric_result=2.65

###

Recorded inhibition, one value per entry.
# TGT: Serine/threonine-protein kinase BRSK1 (Homo sapiens)
# CONDITIONS: at 1 µM
MEASUREMENT_NAME: inhibition (%)

molecular_string=Cc1cc(-c2ccccn2)cc(C)c1/C=C/c1cncc(-c2nn[nH]n2)c1 measurement_name=inhibition value_unit=% numeric_result=-0.86
molecular_string=CC(C)c1ccc(Nc2nccc(-c3cnn4ncccc34)n2)cc1 measurement_name=inhibition value_unit=% numeric_result=3.13
molecular_string=NC(=O)c1sc(-n2cnc3ccccc32)cc1OCc1ccccc1Br measurement_name=inhibition value_unit=% numeric_result=8.3
molecular_string=NS(=O)(=O)c1ccc(Nc2cc(-c3cccc(O)c3)n[nH]2)cc1 measurement_name=inhibition value_unit=% numeric_result=4.52
molecular_string=O=S(=O)(CCOCc1ccc(-c2ccc3ncnc(Nc4ccc(OCc5cccc(F)c5)c(Cl)c4)c3c2)o1)c1ccccc1 measurement_name=inhibition value_unit=% numeric_result=1.37
molecular_string=[O-][S+]1CCN(Cc2ccc(-c3ccc4ncnc(Nc5ccc(OCc6ccccc6)c(Cl)c5)c4c3)o2)CC1 measurement_name=inhibition value_unit=% numeric_result=0.18
molecular_string=CN(C)C(=O)O[C@@H]1CN[C@@H](C#Cc2cc3ncnc(Nc4ccc(OCc5cccc(F)c5)c(Cl)c4)c3s2)C1 measurement_name=inhibition value_unit=% numeric_result=1.18
molecular_string=Nc1nccc(-c2c(-c3ccc(F)cc3)nn3cc(C(F)(F)F)ccc23)n1 measurement_name=inhibition value_unit=% numeric_result=0.47
molecular_string=Cc1ccc2c(c1)/C(=N/Nc1ccc(S(N)(=O)=O)cc1)C(=O)N2 measurement_name=inhibition value_unit=% numeric_result=9.92
molecular_string=CN1CCN(C(=O)c2ccc(NC(=O)Nc3ccc(N(C)c4ccnc(Nc5ccc(CS(C)(=O)=O)cc5)n4)cc3)cc2)CC1 measurement_name=inhibition value_unit=% numeric_result=2.28
molecular_string=Cc1nc(-c2ccccc2)n2nc(NCCCN3CCOCC3)ncc12 measurement_name=inhibition value_unit=% numeric_result=-0.76
molecular_string=ON=C1CCc2cc(-c3nc(C4CCNCC4)[nH]c3-c3ccncc3)ccc21 measurement_name=inhibition value_unit=% numeric_result=0.41
molecular_string=COC(=O)c1cncc(/C=C/c2c(C)cc(O)cc2C)c1 measurement_name=inhibition value_unit=% numeric_result=7.61

###

# TGT: Serine/threonine-protein kinase Sgk3 (Homo sapiens) (UniProt Q96BR1)
# Sequence (Q96BR1 whole entry): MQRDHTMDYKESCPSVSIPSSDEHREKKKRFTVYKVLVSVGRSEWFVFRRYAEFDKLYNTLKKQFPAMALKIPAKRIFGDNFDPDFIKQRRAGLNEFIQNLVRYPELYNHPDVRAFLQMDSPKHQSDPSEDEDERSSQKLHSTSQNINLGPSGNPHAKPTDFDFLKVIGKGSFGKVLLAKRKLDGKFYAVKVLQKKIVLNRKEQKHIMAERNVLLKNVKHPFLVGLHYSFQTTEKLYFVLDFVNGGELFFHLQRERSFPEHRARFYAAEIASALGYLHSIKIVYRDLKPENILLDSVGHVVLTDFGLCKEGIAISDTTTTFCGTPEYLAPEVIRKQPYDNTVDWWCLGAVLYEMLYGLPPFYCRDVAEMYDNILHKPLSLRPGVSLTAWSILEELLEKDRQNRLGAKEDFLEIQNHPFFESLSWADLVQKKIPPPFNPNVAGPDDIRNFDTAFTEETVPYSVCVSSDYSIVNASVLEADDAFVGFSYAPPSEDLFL
# CONDITIONS: at 1 µM
MEASUREMENT_NAME: inhibition (%)

molecule=N#Cc1cccc(Nc2nccc(-c3cnn4ncccc34)n2)c1 numeric_result=7.33
molecule=COc1cc(/C=N/Nc2ncnc3c2cnn3C(C)C)ccc1O numeric_result=2.8
molecule="CCCN1CCCC(c2ccc(Nc3nc(Nc4cc(F)ccc4C(N)=O)c4cc[nH]c4n3)c(OC)c2)C1 (stereo unspecified)" numeric_result=0.16
molecule=Cc1ccc2c(-c3ccnc(Nc4ccc5c(c4)OCCO5)n3)c(-c3ccc(C(F)(F)F)cc3)nn2n1 numeric_result=-1.14
molecule=Cc1cc(Cl)cc2c1NC(=O)C2=NNc1ccc(S(N)(=O)=O)cc1 numeric_result=5.67
molecule=Cc1cc(O)cc(C)c1/C=C/c1cncc(C(=O)N(C)C)c1 numeric_result=0
molecule=CCS(=O)(=O)c1ccc(OC)c(Nc2ncc(-c3cccc(OC)c3)o2)c1 numeric_result=-0.11
molecule=COC(=O)c1cncc(/C=C/c2c(C)cc(O)cc2C)c1 numeric_result=4.83
molecule=Nc1ccc(C#Cc2cncnc2Nc2ccc(OCc3cccc(F)c3)c(Cl)c2)cc1 numeric_result=2.3
molecule=NS(=O)(=O)c1ccc(-c2cc3ccncc3cc2OCc2ccccc2)cc1 numeric_result=2.72
molecule=O=C1Nc2ccc(-c3cccnc3)cc2C1=Cc1cc(Br)c(O)c(Br)c1 numeric_result=2
molecule=CS(=O)(=O)Nc1cccc(-c2ccc3c(NC(=O)C4CC4)n[nH]c3c2)c1 numeric_result=-0.96
molecule=NS(=O)(=O)c1ccc(N/N=C2\C(=O)Nc3ccc(Cl)cc32)cc1 numeric_result=3.61
molecule=CCn1c(-c2nonc2N)nc2ccc(F)cc21 numeric_result=9.8
molecule=CN(C)C(=O)O[C@H]1CN[C@H](C#Cc2cc3ncnc(Nc4ccc(OCc5cccc(F)c5)c(Cl)c4)c3s2)C1 numeric_result=0.86
molecule=Cc1ccc2c(c1)/C(=N/Nc1ccc(S(N)(=O)=O)cc1)C(=O)N2 numeric_result=-1.14
